Several publications report Ki on 5-hydroxytryptamine receptor 7 (Homo sapiens, UniProt P34969); those values are gathered here.
Sequence (P34969 whole entry): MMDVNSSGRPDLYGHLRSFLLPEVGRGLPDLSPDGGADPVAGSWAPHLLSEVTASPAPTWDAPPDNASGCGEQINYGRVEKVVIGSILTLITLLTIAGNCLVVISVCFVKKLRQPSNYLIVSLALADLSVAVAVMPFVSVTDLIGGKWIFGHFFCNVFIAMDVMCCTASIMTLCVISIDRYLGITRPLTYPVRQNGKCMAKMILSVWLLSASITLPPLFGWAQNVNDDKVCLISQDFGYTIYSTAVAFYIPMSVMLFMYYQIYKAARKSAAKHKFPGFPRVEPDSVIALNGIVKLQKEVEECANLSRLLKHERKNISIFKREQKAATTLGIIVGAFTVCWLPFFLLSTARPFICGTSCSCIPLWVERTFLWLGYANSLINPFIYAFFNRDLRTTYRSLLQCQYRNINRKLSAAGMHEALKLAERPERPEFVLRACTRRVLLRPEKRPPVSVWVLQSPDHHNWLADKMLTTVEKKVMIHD
Reported metric: Ki (nM)

Below, 5 compounds whose answers are already recorded.
[
  {
    "Compound": "CC1(c2ccc3ccccc3c2)NC(=O)N(CC(O)CN2CCN(c3ccccc3C#N)CC2)C1=O (configuration not stated)",
    "Ki, nM": 3
  },
  {
    "Compound": "O=C1Nc2cccc3c2C1(CCCCN1CCc2[nH]cnc2C1)CCC3 (configuration not stated)",
    "Ki, nM": 562
  },
  {
    "Compound": "COc1ccccc1N1CCN(CCCC(=O)NCc2ccccc2-c2ccccc2Cl)CC1",
    "Ki, nM": 46.6
  },
  {
    "Compound": "O=C1Nc2ccccc2C12CCN(CCN1CCN(c3ccc(F)cc3)CC1)C2 (configuration not stated)",
    "Ki, nM": 21
  },
  {
    "Compound": "CC(Oc1cccc(Cl)c1F)c1nc(N)nc(N2CCN(C)CC2)n1 (configuration not stated)",
    "Ki, nM": 9740
  }
]

a. NC(=NCCCCNS(=O)(=O)c1cccc2ccccc12)N1CCc2ccccc2C1
b. O=C(CCN1CCC(N2CCOCC2)CC1)c1csc2ccccc12
Q: Which value of Ki is numerically greater: that of a or that of b ? Give the chosen item's label as your response.
Result: b
(b: 53700 nM, a: 198 nM)

----------
pKi: −log10 of the molar value.
Compiled literature pKi, tested on 5-hydroxytryptamine receptor 7 (Homo sapiens).
Reported metric: pKi

1. C[C@H](Nc1ccnc(NCCOc2ccc(F)cc2)c1)c1ccccc1
2. CCC(Oc1ccccc1)c1nc(N)nc(N2CCN(C)CC2)n1 (racemic)
3. CN(C)CCSc1ccccc1-c1ccccc1
4. Cl.Cn1c(=O)c2c(ncn2CCCCCN2CCN(c3cccc(Cl)c3)CC2)n(C)c1=O
Q: Endpoint returns the given molecules ordered by ascending pKi. Return value: ordered labels per request.
Result: 2, 3, 4, 1

1. CCCCSC1CCc2ccc(/N=C/N3CCc4cc(OC)c(OC)cc4C3)cc21 (configuration not stated)
2. CCC1(CCCCN2CCN(c3ccc(Cl)cc3)CC2)C(=O)Nc2c(Cl)cc(Cl)cc21 (configuration not stated)
Q: # compare pKi for 1 vs 2 ; return the one with the smaller value Reply with the label of the item you choose.
Result: 1

----------
This section presents Ki values reported for 5-hydroxytryptamine receptor 7 (Homo sapiens, UniProt P34969) in the literature.
Reported metric: Ki (µM)

The following compounds have reported results that may help.
[
  {
    "Compound": "O=S(=O)(NC1CCN(CCSc2ccccc2-c2ccccc2)CC1)c1ccc(F)c(F)c1",
    "Ki, µM": 0.093
  },
  {
    "Compound": "CC(Oc1cccc(Cl)c1)c1nc(N)nc(N2CCN(C)CC2)n1 (stereo not drawn)",
    "Ki, µM": 8.36
  },
  {
    "Compound": "COc1ccccc1N1CCN(CC(O)CN2C(=O)NC(C)(c3cccc4ccccc34)C2=O)CC1 (stereo not drawn)",
    "Ki, µM": 0.005
  },
  {
    "Compound": "COc1ccccc1N1CCN(CCCCCC(=O)N2CCC[C@H]2C(N)=O)CC1",
    "Ki, µM": 1.2
  },
  {
    "Compound": "O=C1c2ccccc2S(=O)(=O)N1CCCCCCN1CCN(c2nsc3ccccc23)CC1",
    "Ki, µM": 0.045
  },
  {
    "Compound": "O[C@H](CCN1CCc2onc(-c3ccc(F)c(F)c3)c2C1)c1ccccc1",
    "Ki, µM": 71.2
  },
  {
    "Compound": "Cc1ccc2c(OCCN3CCN(Cc4cccc5cccnc45)CC3)cccc2n1",
    "Ki, µM": 0.501
  },
  {
    "Compound": "Oc1ccc(-c2ccc(CNCCc3c[nH]c4cc(F)ccc34)o2)cc1",
    "Ki, µM": 2.73
  }
]

a. O=C1Nc2ccc(F)cc2C1CCCCN1CCN(c2ccccc2)CC1 (stereo not drawn)
b. O=C1Nc2cc(F)ccc2C1CCCCN1CCN(c2ccc(Cl)cc2)CC1 (stereo not drawn)
Q: Looking at a and b , which one comes out lower in Ki terms? Mark your selection by writing its label.
Result: b
(b: 0.025 µM, a: 0.047 µM)
